Source listed as patent US10918645B2.

# measured.target: PKCa (Homo sapiens (Human))
# protocol.description: PKCa kinase selectivity assay
# Format: biochemical
# assay.context: 1 μM inhibitor concentration
Quick list: percentage inhibition of PKCa per entry.
measured.parameter: percentage inhibition of PKCa (percentage)

In [3]: df
Out[3]:
                           substance_smiles              measured_target             measured_parameter  reported
0  CN1CCC(N2Cc3ccccc3-c3n[nH]c4ccnc2c34)CC1  PKCa (Homo sapiens (Human))  percentage inhibition of PKCa         0
1  CC(C)n1ncc2c1CN(C1CCN(C)CC1)c1nccc3[nH]nc-2c13  PKCa (Homo sapiens (Human))  percentage inhibition of PKCa         2
2          c1cc2[nH]nc3c2c(n1)N(C1CCC1)CCC3  PKCa (Homo sapiens (Human))  percentage inhibition of PKCa         0
3        c1cc2[nH]nc3c2c(n1)N(C1CCOCC1)CCC3  PKCa (Homo sapiens (Human))  percentage inhibition of PKCa        11
4         c1cc2[nH]nc3c2c(n1)N(C1CCCC1)CCC3  PKCa (Homo sapiens (Human))  percentage inhibition of PKCa         0
